Provenance of the data: patent US20120184542A1

ASSAYED SYSTEM: Human DYRK1A (Homo sapiens)
Construct: purchased Invitrogen PV3997
TEST DETAILS: DYRK1A Kinase TR-FRET (IMAP-Tb) Assay
Format: biochemical
PARTICULARS: TR-FRET (IMAP-Tb); ATP 70 μM; 37° C. 60 minutes; read-out: Enzyme IC50 (μM) DYRK1A
Where a name gives a salt, the structure may show the parent alone.
What IC50 was measured for each of the following?
Numbers only, in µM.

Worked examples, 2 molecules total:
CN1CCN(c2ncc3cc(C(=O)Nc4cc(C(=O)NCc5ccccc5)ccc4Cl)c(=O)[nH]c3n2)CC1 : 0.109
COC(=O)c1ccc(Cl)c(NC(=O)c2cc3cnc(N4CCN(C)CC4)nc3[nH]c2=O)c1 : 0.0046

// for each molecule in input: emit IC50
1. COc1ncc2cc(C(=O)Nc3cc(C(=O)NCCc4ccccc4)ccc3Cl)c(=O)[nH]c2n1
2. NCCC(NC(=O)c1ccc(Cl)c(NC(=O)c2cc3cncnc3[nH]c2=O)c1)c1ccccc1 (stereo not shown) [Example 152, hydrochloride]
3. CN1CCN(CCNc2ncc3cc(C(=O)Nc4cc(C(=O)NCc5cccc(Cl)c5)ccc4Cl)c(=O)[nH]c3n2)CC1 [Example 100, hydrochloride]
4. COc1ncc2cc(C(=O)Nc3cc(C(=O)N[C@@H](CN)c4cccc(Cl)c4)ccc3Cl)c(=O)[nH]c2n1

0.352
0.066
0.0381
0.481

Fill in: IC50 of O=C(NC(CCO)c1ccccc1)c1ccc(Cl)c(NC(=O)c2cc3cnc(N4C[C@H]5CC[C@@H](C4)O5)nc3[nH]c2=O)c1 (stereo partly shown) is ___
0.083

###

ASSAYED SYSTEM: Human DYRK1A (Homo sapiens, UniProt Q13627)
Construct: purchased Invitrogen PV3997
TEST DETAILS: DYRK1A Kinase TR-FRET (IMAP-Tb) Assay
Format: biochemical
PARTICULARS: TR-FRET (IMAP-Tb); ATP 70 μM; 37° C. 60 minutes; read-out: Enzyme IC50 (μM) DYRK1A
Counter-ions that a name gives are not always drawn.
ASSAY READOUT: IC50

O=C(NCc1cccc(F)c1)c1cc(NC(=O)c2cc3cnc(N4CCOCC4)nc3[nH]c2=O)c(Cl)cc1F : 0.0432 µM

// for each compound in input: emit IC50
1. O=C(NCc1cccc(Cl)c1)c1ccc(Cl)c(NC(=O)c2cc3cnc(N4CCNCC4)nc3[nH]c2=O)c1 [Example 119, hydrochloride]
2. COc1ncc2cc(C(=O)Nc3cc(C(=O)N[C@H](CCO)c4ccccc4)ccc3Cl)c(=O)[nH]c2n1
3. NCCC(NC(=O)c1ccc(Cl)c(NC(=O)c2cc3cnc(N4C[C@H]5CC[C@@H](C4)O5)nc3[nH]c2=O)c1)c1ccccc1 (stereo partly shown) [Example 183, hydrochloride]
4. COC(=O)c1ccc(F)c(NC(=O)c2cc3cnc(OC)nc3[nH]c2=O)c1
5. O=C(NCc1cccc(Cl)c1)c1ccc(Cl)c(NC(=O)c2cc3cnc(NCCO)nc3[nH]c2=O)c1
6. COc1ncc2cc(C(=O)Nc3cc(C(=O)NCc4ccccn4)ccc3Cl)c(=O)[nH]c2n1

["0.044 µM", "0.037 µM", "0.0046 µM", "9.8 µM", "0.00974 µM", "0.16 µM"]

###

ASSAYED SYSTEM: Human DYRK1B (Homo sapiens, UniProt Q9Y463)
Construct: purchased Invitrogen PR8350B (former PV4649)
Sequence (Q9Y463 whole entry): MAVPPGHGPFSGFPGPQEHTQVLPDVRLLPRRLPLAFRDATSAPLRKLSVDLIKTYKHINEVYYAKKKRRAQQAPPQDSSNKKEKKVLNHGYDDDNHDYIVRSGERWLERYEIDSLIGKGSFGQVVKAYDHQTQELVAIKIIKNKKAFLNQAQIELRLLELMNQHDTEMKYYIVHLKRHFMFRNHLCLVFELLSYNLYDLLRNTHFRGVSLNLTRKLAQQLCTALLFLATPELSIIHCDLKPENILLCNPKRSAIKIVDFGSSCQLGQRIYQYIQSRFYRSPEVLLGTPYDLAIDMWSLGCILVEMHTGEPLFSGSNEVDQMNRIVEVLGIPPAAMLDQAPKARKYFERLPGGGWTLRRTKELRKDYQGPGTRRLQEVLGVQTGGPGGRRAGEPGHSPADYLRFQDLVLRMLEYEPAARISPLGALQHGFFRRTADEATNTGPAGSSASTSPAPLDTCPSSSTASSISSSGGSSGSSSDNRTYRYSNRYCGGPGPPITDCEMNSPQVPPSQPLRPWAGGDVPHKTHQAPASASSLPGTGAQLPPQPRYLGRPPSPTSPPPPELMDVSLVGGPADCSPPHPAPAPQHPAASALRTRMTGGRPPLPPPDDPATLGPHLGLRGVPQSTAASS
TEST DETAILS: DYRK1B Kinase TR-FRET (IMAP-Tb) Assay
Assay type: biochemical
PARTICULARS: TR-FRET (IMAP-Tb); ATP 70 μM; 37° C. 60 minutes; read-out: Enzyme IC50 (μM) DYRK1B
Counter-ions that a name gives are not always drawn.
ASSAY READOUT: IC50 (µM)
One number for each entry, in µM.

Worked examples, 3 compounds total:
CN1CCN(CCCNc2ncc3cc(C(=O)Nc4cc(C(=O)NCc5cccc(Cl)c5)ccc4Cl)c(=O)[nH]c3n2)CC1 [Example 101] : 0.0221
CN1CCN(CCCNc2ncc3cc(C(=O)Nc4cc(C(=O)NCc5cccc(Cl)c5)ccc4Cl)c(=O)[nH]c3n2)CC1 [Example 102, hydrochloride] : 0.047
COc1ncc2cc(C(=O)Nc3cc(C(=O)NC(CCN)C4CCCC4)ccc3Cl)c(=O)[nH]c2n1 (centres unmarked) : 0.36

// for each compound in input: emit IC50
1. CN1CCN(CCNc2ncc3cc(C(=O)Nc4cc(C(=O)NC(CN)c5ccccc5)ccc4Cl)c(=O)[nH]c3n2)CC1 (centres unmarked) [Example 139, hydrochloride]
2. COc1ncc2cc(C(=O)Nc3cc(C(=O)OCc4ccccc4Cl)ccc3Cl)c(=O)[nH]c2n1
3. COc1ncc2cc(C(=O)Nc3cc(C(=O)NCc4cccc(Cl)c4)ccc3C)c(=O)[nH]c2n1
4. CN1CCN(CCOc2ncc3cc(C(=O)Nc4cc(C(=O)NCc5cccc(Cl)c5)ccc4Cl)c(=O)[nH]c3n2)CC1
5. O=C(NCc1cccc(Cl)c1)c1ccc(Cl)c(NC(=O)c2cc3cnc(N[C@H]4CC[C@H](O)CC4)nc3[nH]c2=O)c1
6. COc1ncc2cc(C(=O)Nc3cc(C(=O)NCCCN)ccc3Cl)c(=O)[nH]c2n1

0.019
5.25
0.437
0.0859
0.0622
0.774

// for each compound in input: emit IC50
1. O=C(NCc1cccc(Cl)c1)c1ccc(Cl)c(NC(=O)c2cc3cnc(NCC(O)CO)nc3[nH]c2=O)c1 (centres unmarked)
2. CN1CCN(c2ncc3cc(C(=O)Nc4cc(C(=O)NCc5cccc(Cl)c5)ccc4Cl)c(=O)[nH]c3n2)CC1
3. CSc1ncc2cc(C(=O)Nc3cc(C(=O)NC(CCN)c4ccccc4)ccc3Cl)c(=O)[nH]c2n1 (centres unmarked) [Example 107, hydrochloride]
4. O=C(NCc1cccc(Cl)c1)c1ccc(Cl)c(NC(=O)c2cc3cnc(NCCN4CCCC4)nc3[nH]c2=O)c1
5. CSc1ncc2cc(C(=O)Nc3cc(C(=O)NC(CN)c4ccccc4)ccc3Cl)c(=O)[nH]c2n1 (centres unmarked)

[0.059, 0.103, 0.0105, 0.023, 0.0099]

###

ASSAYED SYSTEM: Human DYRK1B (Homo sapiens, UniProt Q9Y463)
Construct: purchased Invitrogen PR8350B (former PV4649)
TEST DETAILS: DYRK1B Kinase TR-FRET (IMAP-Tb) Assay
Format: biochemical
PARTICULARS: TR-FRET (IMAP-Tb); ATP 70 μM; 37° C. 60 minutes; read-out: Enzyme IC50 (μM) DYRK1B
Counter-ions that a name gives are not always drawn.
ASSAY READOUT: IC50 (µM)
Numbers only, in µM.

COc1ncc2cc(C(=O)Nc3cc(C(=O)NCCc4ccccc4)ccc3Cl)c(=O)[nH]c2n1 [Example 70] : 0.204

// for each compound in input: emit IC50
1. CSc1ncc2cc(C(=O)Nc3cc(C(=O)NCc4cccc(Cl)c4)ccc3Cl)c(=O)[nH]c2n1 [Example 74]
2. NCC(NC(=O)c1ccc(Cl)c(NC(=O)c2cc3cnc(N4CCC(N)CC4)nc3[nH]c2=O)c1)c1ccccc1 (centres unmarked) [Example 138, hydrochloride]
3. COc1ncc2cc(C(=O)Nc3cc(C(=O)N[C@@H](CN)c4cccc(Cl)c4)ccc3Cl)c(=O)[nH]c2n1 [Example 134]
4. O=C(NCc1cccc(Cl)c1)c1ccc(Cl)c(NC(=O)c2cc3cnc(NC4CCNCC4)nc3[nH]c2=O)c1 [Example 125, hydrochloride]
5. CSc1ncc2cc(C(=O)Nc3cc(C(=O)NC(CO)c4ccccc4)ccc3Cl)c(=O)[nH]c2n1 (centres unmarked) [Example 140]

[0.0553, 0.0319, 1.98, 0.206, 0.17]

// for each compound in input: emit IC50
1. O=C(NCc1cccc(Cl)c1)c1ccc(Cl)c(NC(=O)c2cc3cnc(N4CCC(O)CC4)nc3[nH]c2=O)c1 [Example 92]
2. O=C(NCc1cccc(F)c1)c1cc(NC(=O)c2cc3cnc(N4CCOCC4)nc3[nH]c2=O)c(Cl)cc1F [Example 162]
3. COc1ncc2cc(C(=O)Nc3cc(C(=O)O)ccc3Cl)c(=O)[nH]c2n1 [Example 22]
4. COc1nc(C)c2cc(C(=O)Nc3cc(C(=O)NC(CN)c4ccccc4)ccc3Cl)c(=O)[nH]c2n1 (centres unmarked) [Example 170, 2,2,2-trifluoroacetate]
5. NCCC(NC(=O)c1ccc(Cl)c(NC(=O)c2cc3cncnc3[nH]c2=O)c1)c1ccccc1 (centres unmarked) [Example 152, hydrochloride]
6. CN(C)c1ncc2cc(C(=O)Nc3cc(C(=O)NCc4cccc(Cl)c4)ccc3Cl)c(=O)[nH]c2n1 [Example 155]
7. NC1CCN(c2ncc3cc(C(=O)Nc4cc(C(=O)NCc5cccc(Cl)c5)ccc4Cl)c(=O)[nH]c3n2)CC1 [Example 97]
8. COc1ncc2cc(C(=O)Nc3cc(C(=O)NC(CCN(C)C)c4cccc(Cl)c4)ccc3Cl)c(=O)[nH]c2n1 (centres unmarked) [Example 96]

[0.035, 0.135, 2.73, 0.117, 0.033, 0.0923, 0.0819, 0.233]

// for each compound in input: emit IC50
1. CN1CCN(c2ncc3cc(C(=O)Nc4cc(C(=O)N[C@H](CN)Cc5cccc(F)c5)ccc4Cl)c(=O)[nH]c3n2)CC1 [Example 187]
2. O=C(NCc1cccc(Cl)c1)c1ccc(Cl)c(NC(=O)c2cc3cnc(N4CCOCC4)nc3[nH]c2=O)c1 [Example 86]
3. COc1ncc2cc(C(=O)Nc3cc(C(=O)NCc4cccnc4)ccc3Cl)c(=O)[nH]c2n1 [Example 67]
4. C[C@@H](NC(=O)c1ccc(Cl)c(NC(=O)c2cc3cnc(N4CCN(C)CC4)nc3[nH]c2=O)c1)c1ccccc1 [Example 174]
5. COc1ncc2cc(C(=O)Nc3cc(C(=O)NCc4ccccc4Cl)ccc3Cl)c(=O)[nH]c2n1 [Example 47]

[0.202, 3.25, 0.669, 0.207, 0.0908]

// for each compound in input: emit IC50
1. COc1ncc2cc(C(=O)Nc3cc(C(=O)NC(CN)c4ccccc4)ccc3Cl)c(=O)[nH]c2n1 (centres unmarked) [Example 72]
2. COc1ncc2cc(C(=O)Nc3cc(C(=O)NCC[C@@H](N)c4ccccc4)ccc3Cl)c(=O)[nH]c2n1 [Example 184]
3. CSc1ncc2cc(C(=O)Nc3cc(C(=O)NC(CCO)c4ccccc4)ccc3Cl)c(=O)[nH]c2n1 (centres unmarked) [Example 141]
4. COc1ncc2cc(C(=O)Nc3cc(C(=O)N[C@@H](CCN)c4ccccc4)ccc3Cl)c(=O)[nH]c2n1 [Example 176]
5. COc1ncc2cc(C(=O)Nc3cc(C(=O)N[C@H](CN)c4ccccc4)ccc3Cl)c(=O)[nH]c2n1 [Example 133]

1. 0.00935
2. 0.691
3. 0.12
4. 1.15
5. 0.0365

// for each compound in input: emit IC50
1. COc1ncc2cc(C(=O)Nc3cc(C(=O)NCC(C)C)ccc3Cl)c(=O)[nH]c2n1 [Example 79]
2. O=C(NCc1cccc(Cl)c1)c1ccc(Cl)c(NC(=O)c2cc3cnc(OCCN4CCOCC4)nc3[nH]c2=O)c1 [Example 81]
3. COc1ncc2cc(C(=O)Nc3cc(C(=O)N[C@H](CCO)c4ccccc4)ccc3Cl)c(=O)[nH]c2n1 [Example 158]
4. COc1ncc2cc(C(=O)Nc3cc(C(=O)NC(CN)C4CCCC4)ccc3Cl)c(=O)[nH]c2n1 (centres unmarked) [Example 200]

[1.52, 0.128, 0.082, 0.47]

Fill in: IC50 of CN1CCN(c2ncc3cc(C(=O)Nc4cc(C(=O)NCc5ccccc5)ccc4Cl)c(=O)[nH]c3n2)CC1 [Example 172] is ___
0.208
